# measured-on: CDK7 CyclinH (Homo sapiens, UniProt P50613)
# Sequence (P50613 whole entry): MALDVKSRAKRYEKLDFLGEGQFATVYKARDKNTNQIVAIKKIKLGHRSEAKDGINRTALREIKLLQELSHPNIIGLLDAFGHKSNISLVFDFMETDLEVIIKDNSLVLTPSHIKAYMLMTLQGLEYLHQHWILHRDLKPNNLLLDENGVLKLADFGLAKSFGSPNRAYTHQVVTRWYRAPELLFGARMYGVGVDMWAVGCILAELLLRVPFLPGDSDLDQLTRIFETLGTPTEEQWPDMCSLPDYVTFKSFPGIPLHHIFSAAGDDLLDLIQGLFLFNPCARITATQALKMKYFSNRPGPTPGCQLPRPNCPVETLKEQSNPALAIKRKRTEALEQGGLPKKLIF
# Sequence (P51946 whole entry partner): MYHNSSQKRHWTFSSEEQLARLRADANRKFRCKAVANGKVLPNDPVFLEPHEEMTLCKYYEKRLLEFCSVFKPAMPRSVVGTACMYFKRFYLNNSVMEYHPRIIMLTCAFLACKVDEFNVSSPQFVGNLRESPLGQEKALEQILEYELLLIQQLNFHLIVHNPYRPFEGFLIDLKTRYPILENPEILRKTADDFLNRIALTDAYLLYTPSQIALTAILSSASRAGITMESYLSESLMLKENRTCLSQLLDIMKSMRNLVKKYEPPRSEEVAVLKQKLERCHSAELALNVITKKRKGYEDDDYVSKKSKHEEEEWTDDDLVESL
# Sequence (P51948 whole entry partner): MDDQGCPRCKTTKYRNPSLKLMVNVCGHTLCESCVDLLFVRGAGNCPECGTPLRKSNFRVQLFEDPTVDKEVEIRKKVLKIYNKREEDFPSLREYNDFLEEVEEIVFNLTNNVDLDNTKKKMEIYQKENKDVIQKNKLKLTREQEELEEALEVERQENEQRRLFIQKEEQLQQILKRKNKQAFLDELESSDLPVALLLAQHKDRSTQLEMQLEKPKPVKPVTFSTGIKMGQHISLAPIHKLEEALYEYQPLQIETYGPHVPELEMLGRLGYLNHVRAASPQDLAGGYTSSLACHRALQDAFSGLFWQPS
# measurement-notes: Additional inhibition assay, CDK7 CyclinH
# Type: biochemical
# condition-context: Table 3a
outcome-measure: IC50

CN(C)CCOc1ccc(Nc2ncc3c(n2)N(C2CCCC2)C2(CCNC2=O)C3)nc1 (stereo not shown)    > 10 µM
CN1CCC(c2ccc(Nc3ncc4c(n3)N(C3CCCC3)C3(CCNC3=O)C4)cc2)CC1 (stereo not shown)    > 10 µM
O=C1NCCC12Cc1cnc(Nc3ccc(OCCN4CCCC4)nc3)nc1N2C1CCCC1 (stereo not shown)    > 10 µM
CC1CN(c2ccc(Nc3ncc4c(n3)N(C3CCCC3)C3(CC(=O)NC3=O)C4)cc2)CC(C)N1 (stereo not shown)    > 10 µM
CN1CCN(c2ccc(Nc3ncc4c(n3)N(C3CCCC3)C3(CCNC3=O)C4)cc2F)CC1 (single isomer, unassigned)    22.1 µM
CN1CCN(c2ccc(Nc3ncc4c(n3)N(C3CCCC3)C3(CC(=O)NC3=O)C4)cc2)CC1 (single isomer, unassigned) [Compound C136]    5.74 µM
CC(C)c1ccc(Nc2ncc3c(n2)N(C2CCCC2)C2(CCNC2=O)C3)cc1 (stereo not shown)    > 10 µM

====

# measured-on: CDK6-CYCLIND3 (Homo sapiens, UniProt Q00534)
# Construct: purchased Carna
# Sequence (Q00534 whole entry): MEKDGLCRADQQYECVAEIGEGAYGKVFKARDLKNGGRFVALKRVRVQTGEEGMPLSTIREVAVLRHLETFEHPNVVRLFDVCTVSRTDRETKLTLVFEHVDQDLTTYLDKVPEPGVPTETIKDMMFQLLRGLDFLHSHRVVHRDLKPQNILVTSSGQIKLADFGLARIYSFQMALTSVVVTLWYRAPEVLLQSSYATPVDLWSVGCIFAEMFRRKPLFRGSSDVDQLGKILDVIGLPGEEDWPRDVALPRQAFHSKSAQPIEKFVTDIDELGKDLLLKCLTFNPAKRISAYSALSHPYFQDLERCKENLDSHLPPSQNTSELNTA
# Sequence (P30281 whole entry partner): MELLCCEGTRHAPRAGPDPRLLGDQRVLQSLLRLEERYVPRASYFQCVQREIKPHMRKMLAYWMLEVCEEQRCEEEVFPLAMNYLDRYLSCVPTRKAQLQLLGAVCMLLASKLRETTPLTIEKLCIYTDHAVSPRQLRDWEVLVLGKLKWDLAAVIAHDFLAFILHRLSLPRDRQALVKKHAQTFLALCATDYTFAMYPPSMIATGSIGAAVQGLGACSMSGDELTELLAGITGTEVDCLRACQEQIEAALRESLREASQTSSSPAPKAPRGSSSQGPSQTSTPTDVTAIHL
# measurement-notes: Microfluidic LabChip kinase inhibition assay, CDK6-CyclinD3
# Type: biochemical
# condition-context: Table 2; 300 μM ATP, 2 nM enzyme; read-out: CDK6 IC50
List of IC50 values.
outcome-measure: IC50

CN1CCC2(Cc3cnc(Nc4ccc(N5CCNCC5)cc4)nc3N2C2CCCC2)C1=O (stereo not shown)    23.8 µM
CN1CCN(c2ccc(Nc3ncc4c(n3)N(C3CCCC3)C3(CCCN(C)C3=O)C4)nc2)CC1 (stereo not shown)    > 30 µM
CN1CCN(c2ccc(Nc3ncc4c(n3)N(C3CCCC3)C3(CCN(Cc5ccccc5)C3=O)C4)nc2)CC1 (stereo not shown)    > 30 µM
COc1ccc(CN2CCC3(Cc4cnc(Nc5ccc(OCCN(C)C)cn5)nc4N3C3CCCC3)C2=O)cc1 (stereo not shown)    > 30 µM

====

# measured-on: CDK7 CyclinH (Homo sapiens, UniProt P50613)
# measurement-notes: Additional inhibition assay, CDK7 CyclinH
# Type: biochemical
# condition-context: Table 3a
pIC50: −log10 of the molar value.
outcome-measure: pIC50

O=C1NCCC12Cc1cnc(Nc3ccc(N4CCC(N5CCOCC5)CC4)cc3)nc1N2C1CCCC1 (stereo not drawn)    < 5.00
CC(C)N1CC2(CN(c3ccc(Nc4ncc5c(n4)N(C4CCCC4)C4(CC(=O)NC4=O)C5)cc3)C2)C1 (stereo not drawn)    < 5.00
CN(C)[C@H]1CCN(c2ccc(Nc3ncc4c(n3)N(C3CCCC3)C3(CCNC3=O)C4)cc2F)C1 (stereo partly drawn)    < 5.00

====

Reported IC50 values for a set of compounds
# measured-on: CDK6-CYCLIND3 (Homo sapiens)
# Construct: purchased Carna
# measurement-notes: Microfluidic LabChip kinase inhibition assay, CDK6-CyclinD3
# Type: biochemical
# condition-context: Table 2; 300 μM ATP, 2 nM enzyme; read-out: CDK6 IC50
outcome-measure: IC50 (nM)

O=C1NCCC12Cc1cnc(Nc3ccc(N4CCNCC4)c(F)c3)nc1N2C1CCCC1 (stereo not shown)    179
CC(C)N1CC=C(c2ccc(Nc3ncc4c(n3)N(C3CCCC3)C3(CC(=O)NC3=O)C4)nc2)CC1 (stereo not shown)    45.6
O=C1CC2(Cc3cnc(Nc4ccc(N5CCNCC5)c(F)c4)nc3N2C2CCCC2)C(=O)N1 (stereo not shown)    79.2
